Catalogue of compounds with associated half-life
Experiment: Half life in rat liver microsomes
Assay type: ADME

Please review the entries below; each comes with its answer.
CCOC(=O)N1CCN(CC#Cc2ccnc3ccc(-c4cnc(OC)c(NS(=O)(=O)c5ccc(F)cc5F)c4)cc23)CC1 :: 46.5 min
COc1ncc(-c2ccc3nccc(C#CCN(C)C)c3c2)cc1NS(=O)(=O)c1ccc(F)cc1F :: 18.8 min
COc1ncc(-c2ccc3nccc(C#CCN(C)CCO)c3c2)cc1NS(=O)(=O)c1ccc(F)cc1F :: 28.4 min

q: I'd like to know its half-life. The compound in question is COc1ncc(-c2ccc3nccc(C#CCN4CCN(S(C)(=O)=O)CC4)c3c2)cc1NS(=O)(=O)c1ccc(F)cc1F
a: 29 min

q: I'd like to know its half-life. The compound in question is COc1ncc(-c2ccc3nccc(C#CCN4CCOCC4)c3c2)cc1NS(=O)(=O)c1ccc(F)cc1F
a: 36.9 min
